B1: Transcription factor PIF5 (Arabidopsis thaliana (Mouse-ear cress)), Q84LH8 (parent)
chain: MEQVFADWNFEDNFHMSTNKRSIRPEDELVELLWRDGQVVLQSQARREPSVQVQTHKQETLRKPNNIFLDNQETVQKPNYAALDDQETVSWIQYPPDDVIDPFESEFSSHFFSSIDHLGGPEKPRTIEETVKHEAQAMAPPKFRSSVITVGPSHCGSNQSTNIHQATTLPVSMSDRSKNVEERLDTSSGGSSGCSYGRNNKETVSGTSVTIDRKRKHVMDADQESVSQSDIGLTSTDDQTMGNKSSQRSGSTRRSRAAEVHNLSERRRRDRINERMKALQELIPHCSRTDKASILDEAIDYLKSLQMQLQVMWMGSGMAAAAAAAASPMMFPGVQSSPYINQMAMQSQMQLSQFPVMNRSAPQNHPGLVCQNPVQLQLQAQNQILSEQLARYMGGIPQMPPAGNQMQTVQQQPADMLGFGSPAGPQSQLSAPATTDSLHMGKIG

variants of: B1; details: with phyb_arath PHYB
reportedEndpoint: effect of a mutation on the interaction

Q38A ... decreasing interaction
E31A ... decreasing interaction
G37A ... decreasing interaction
L32A ... decreasing interaction
